Origin of the recorded values: PubChem BioAssay AID837

- assayed target: Protein Rev (Human immunodeficiency virus type 1 group M subtype B (isolate WMJ22)) (UniProt P05866)
- Sequence (P05866 whole entry, looked up): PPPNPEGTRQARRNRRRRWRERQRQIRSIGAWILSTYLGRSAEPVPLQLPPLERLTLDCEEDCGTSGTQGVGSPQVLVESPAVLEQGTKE
- experimental protocol: HIV-1 Rev-RRE binding inhibitors, retest, confirmation, biochemical, FRET, acceptor and relative FRET calls (AID 837);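 also: relative FRET combines rise in Cy5 acceptor with fall in fluorescein donor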
- condition label: Fl-Rev peptide / Cy5-RRE RNA FRET, 1536-well; at 8 µM
Calls of active or inactive are those of the source.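 The calls were made as follows: active = relative FRET score above 0.01, or acceptor fluorescence over 30% below the sample-well median; inactive = the rest.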
Response enum: yes = active, no = inactive

Use these answered entries as a reference point.
{"molecule": "CCOc1ccc(C(O)Cn2c(=N)n(CCN3CCCCC3)c3ccccc32)cc1 (stereo unspecified)", "qualitative label": "no"}
{"molecule": "CCc1nnc(NC(=O)c2ccc3c(c2)C(=O)N(C(C)(C)C)C3=O)s1", "qualitative label": "no"}

What call does the record list for Nc1[nH]c(=S)[nH]c(=O)c1-c1ccccc1 ?
no

What call does the record list for OCCN=c1cc(-c2ccccc2)oc2ccc(Cl)cc12 ?
no

What call does the record list for CCN(CC)CCNC1=NCCn2c1cc1cc(OC)ccc12 ?
yes

What call does the record list for CCOc1cc(CNCCCN2CCOCC2)ccc1OCC(=O)Nc1cccc2ccccc12 ?
no

What call does the record list for COC(=O)c1c(C(=O)OC)n(CCCN)c2ccc(C)cc12 ?
yes

What call does the record list for COc1cccc(-c2cc(C(F)(F)F)nc(N3CCC(C)CC3)n2)c1 ?
no

What call does the record list for OC(COc1ccc2cc(Br)ccc2c1)CN1CCCC1 (stereo unspecified) ?
no

What call does the record list for Cc1ccc(C2NC(=O)c3c(sc4c3CCN(C)C4)N2)s1 (stereo unspecified) ?
no

What call does the record list for OC(CNC1CCCC1)COc1c(F)cc(Br)cc1F (stereo unspecified) ?
no
